Target: Kv7.2/3 K+ channels (M-channels) (Homo sapiens, UniProt O43525+O43526)
Sequence (O43526 whole entry): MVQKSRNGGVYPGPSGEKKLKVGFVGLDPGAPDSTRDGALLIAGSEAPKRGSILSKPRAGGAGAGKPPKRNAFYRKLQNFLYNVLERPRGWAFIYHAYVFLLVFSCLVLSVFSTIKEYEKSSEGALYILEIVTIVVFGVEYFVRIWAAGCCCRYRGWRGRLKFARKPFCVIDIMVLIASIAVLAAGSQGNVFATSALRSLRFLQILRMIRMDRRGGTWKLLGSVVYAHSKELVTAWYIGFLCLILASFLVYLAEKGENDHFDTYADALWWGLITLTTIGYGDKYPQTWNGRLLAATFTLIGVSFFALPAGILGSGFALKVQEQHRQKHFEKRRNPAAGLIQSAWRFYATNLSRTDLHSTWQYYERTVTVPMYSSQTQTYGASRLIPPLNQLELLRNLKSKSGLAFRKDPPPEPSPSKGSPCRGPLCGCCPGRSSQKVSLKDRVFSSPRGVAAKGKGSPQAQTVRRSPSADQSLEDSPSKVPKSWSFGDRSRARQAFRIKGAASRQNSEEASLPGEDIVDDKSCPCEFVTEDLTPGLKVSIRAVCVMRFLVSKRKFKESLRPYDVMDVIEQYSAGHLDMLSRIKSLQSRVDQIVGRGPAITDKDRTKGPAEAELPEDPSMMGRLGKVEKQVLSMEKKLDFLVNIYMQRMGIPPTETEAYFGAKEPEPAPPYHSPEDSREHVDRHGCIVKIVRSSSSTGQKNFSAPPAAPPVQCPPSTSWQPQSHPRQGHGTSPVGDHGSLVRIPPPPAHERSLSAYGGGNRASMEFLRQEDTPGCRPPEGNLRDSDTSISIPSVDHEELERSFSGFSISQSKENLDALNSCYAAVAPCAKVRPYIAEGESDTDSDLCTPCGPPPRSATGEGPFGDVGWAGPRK
Sequence (O43525 whole entry): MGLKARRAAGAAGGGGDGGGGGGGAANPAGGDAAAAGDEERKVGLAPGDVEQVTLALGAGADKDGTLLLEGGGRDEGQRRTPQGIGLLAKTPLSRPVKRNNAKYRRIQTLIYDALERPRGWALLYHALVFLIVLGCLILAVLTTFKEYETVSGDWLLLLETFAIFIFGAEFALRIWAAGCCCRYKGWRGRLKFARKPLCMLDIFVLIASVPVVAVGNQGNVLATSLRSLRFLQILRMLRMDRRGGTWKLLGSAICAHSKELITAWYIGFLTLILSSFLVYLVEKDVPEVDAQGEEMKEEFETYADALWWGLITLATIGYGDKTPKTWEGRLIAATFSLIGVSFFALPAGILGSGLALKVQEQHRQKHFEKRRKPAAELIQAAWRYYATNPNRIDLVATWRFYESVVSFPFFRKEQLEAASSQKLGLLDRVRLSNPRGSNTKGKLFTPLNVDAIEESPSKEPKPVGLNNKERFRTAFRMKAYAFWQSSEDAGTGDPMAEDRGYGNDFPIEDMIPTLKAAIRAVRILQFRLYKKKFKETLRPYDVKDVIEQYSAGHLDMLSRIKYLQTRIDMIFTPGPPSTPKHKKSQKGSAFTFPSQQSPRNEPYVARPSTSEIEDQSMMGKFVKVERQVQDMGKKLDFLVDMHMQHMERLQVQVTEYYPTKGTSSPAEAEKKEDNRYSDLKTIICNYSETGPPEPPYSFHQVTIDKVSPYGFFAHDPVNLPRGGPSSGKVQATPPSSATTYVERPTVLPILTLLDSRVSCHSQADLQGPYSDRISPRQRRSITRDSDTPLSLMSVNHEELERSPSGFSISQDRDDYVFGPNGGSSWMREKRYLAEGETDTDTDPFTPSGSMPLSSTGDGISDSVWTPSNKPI
Assay: Whole-cell patch-clamp of recombinant Kv7.2/3 channels in CHO cells
Conditions: concentration-dependent left-shift ΔV50, sigmoidal fit; read-out: M-channel opener potency EC50
Recorded EC50, one value per entry.
Answer in µM, number only, no unit symbol.

[in] Annotate the molecule `O=C(Cc1cc([N+](=O)[O-])ccc1Nc1c(Cl)cccc1Cl)NCCO` with its measured EC50.
[out] 17

[in] Tell us which EC50 value is on record for O=C(O)Cc1ccccc1Nc1c(Cl)cccc1Cl [Diclofenac, reference compound]
[out] 2.6

[in] Using known records, supply EC50 for `O=C(Cc1cc([N+](=O)[O-])ccc1Nc1c(Cl)cccc1Cl)OCCO`
[out] 22

[in] Output measured EC50 for this item: Cc1ccc(Cl)c(Nc2ccccc2C(=O)O)c1Cl [Meclofenamic acid, reference compound]
[out] 25
